Entries and their inhibition at 10 µM values follow.
Biological target: MAO-A (Homo sapiens)
Sequence (P21397 whole entry): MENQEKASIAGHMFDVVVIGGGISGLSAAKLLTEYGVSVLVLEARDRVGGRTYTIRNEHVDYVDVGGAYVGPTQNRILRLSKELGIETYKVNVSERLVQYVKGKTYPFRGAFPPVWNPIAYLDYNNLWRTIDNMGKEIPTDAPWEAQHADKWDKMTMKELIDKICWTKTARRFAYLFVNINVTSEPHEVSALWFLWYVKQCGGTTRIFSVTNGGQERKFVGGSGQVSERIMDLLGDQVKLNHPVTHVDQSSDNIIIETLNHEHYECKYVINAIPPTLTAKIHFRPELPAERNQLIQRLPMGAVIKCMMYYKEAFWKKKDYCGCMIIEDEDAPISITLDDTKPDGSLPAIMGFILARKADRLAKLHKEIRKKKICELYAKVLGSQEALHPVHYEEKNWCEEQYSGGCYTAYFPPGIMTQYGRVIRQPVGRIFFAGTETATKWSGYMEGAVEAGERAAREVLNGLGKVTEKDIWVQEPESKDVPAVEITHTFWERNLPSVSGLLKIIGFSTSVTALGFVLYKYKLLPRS
Experiment: Inhibition of human recombinant MAO-A at 10 uM
Return type: number; implicit unit %.

In the examples that follow, each entry is paired with its recorded inhibition at 10 µM.
[
  {
    "COMPOUND": "CCCCC1OC(=O)c2cc(N3N=C(c4cc(C)ccc4O)CC3=O)ccc21 (stereo unspecified)",
    "inhibition at 10 µM [%]": 5.2
  },
  {
    "COMPOUND": "C[C@H](NCc1ccc(OCc2cccc(F)c2)cc1)C(N)=O [SAFINAMIDE]",
    "inhibition at 10 µM [%]": 9.67
  },
  {
    "COMPOUND": "O=C1OCc2ccc(N3N=C(c4cc(F)ccc4O)CC3=O)cc21",
    "inhibition at 10 µM [%]": 24.2
  },
  {
    "COMPOUND": "CCCCC1OC(=O)c2cc(N3N=C(c4cc(Cl)cc(Cl)c4O)CC3=O)ccc21 (stereo unspecified)",
    "inhibition at 10 µM [%]": 1.11
  },
  {
    "COMPOUND": "CCCCCCC1OC(=O)c2cc(N3N=C(c4cc(F)ccc4O)CC3=O)ccc21 (stereo unspecified)",
    "inhibition at 10 µM [%]": 10.7
  }
]

Data request: Using known records, supply inhibition at 10 µM for CCCCCCC1OC(=O)c2cc(N3N=C(c4cc(Cl)ccc4O)CC3=O)ccc21 (stereo unspecified)
Data returned: 27.8

Data request: Using known records, supply inhibition at 10 µM for O=C1OCc2ccc(N3N=C(c4cccc(F)c4O)CC3=O)cc21
Data returned: 21

Data request: Using known records, supply inhibition at 10 µM for CCCCC1OC(=O)c2cc(N3N=C(c4cc(Cl)cc(Br)c4O)CC3=O)ccc21 (stereo unspecified)
Data returned: 8.09

Data request: Using known records, supply inhibition at 10 µM for O=C1OCc2ccc(N3N=C(c4ccccc4O)CC3=O)cc21
Data returned: 23.2

Data request: Using known records, supply inhibition at 10 µM for CCCCC1OC(=O)c2cc(N3N=C(c4cccc(Br)c4O)CC3=O)ccc21 (stereo unspecified)
Data returned: 13

Data request: Using known records, supply inhibition at 10 µM for CCCCC1OC(=O)c2cc(N3N=C(c4ccccc4O)CC3=O)ccc21 (stereo unspecified)
Data returned: 25.6

Data request: Using known records, supply inhibition at 10 µM for CCCCC1OC(=O)c2cc(-n3nc(-c4ccccc4O)cc3C)ccc21 (stereo unspecified)
Data returned: 20.4

Data request: Using known records, supply inhibition at 10 µM for CCCCCCCC1OC(=O)c2cc(N3N=C(c4cc(OC)ccc4O)CC3=O)ccc21 (stereo unspecified)
Data returned: 8.73

Data request: Using known records, supply inhibition at 10 µM for CCCCC1OC(=O)c2cc(N3N=C(c4cc([N+](=O)[O-])ccc4O)CC3=O)ccc21 (stereo unspecified)
Data returned: 8.48

Data request: Using known records, supply inhibition at 10 µM for CCCCC1OC(=O)c2cc(N3N=C(c4ccc(N(C)C)cc4O)CC3=O)ccc21 (stereo unspecified)
Data returned: 9.51

Data request: Using known records, supply inhibition at 10 µM for CCCCC1OC(=O)c2cc(N3N=C(c4cc(Cl)ccc4O)CC3=O)ccc21 (stereo unspecified)
Data returned: 14.1
